system_tested: human APJ receptor (Homo sapiens (Human), UniProt P35414)
Sequence (P35414 whole entry): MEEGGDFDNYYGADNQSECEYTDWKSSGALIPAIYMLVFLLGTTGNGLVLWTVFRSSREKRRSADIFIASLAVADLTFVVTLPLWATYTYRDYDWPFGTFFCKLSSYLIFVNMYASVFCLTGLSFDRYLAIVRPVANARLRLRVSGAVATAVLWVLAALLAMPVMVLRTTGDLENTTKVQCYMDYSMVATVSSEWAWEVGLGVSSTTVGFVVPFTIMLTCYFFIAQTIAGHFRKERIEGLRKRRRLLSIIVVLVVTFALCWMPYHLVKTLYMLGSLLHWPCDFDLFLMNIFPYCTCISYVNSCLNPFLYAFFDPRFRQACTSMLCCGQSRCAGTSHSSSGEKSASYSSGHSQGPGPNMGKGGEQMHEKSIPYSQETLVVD
experiment_notes: Intracellular cAMP accumulation assay (APJ hcAMP, HTRF)
Format: cell-based
measurement_conditions: HEK293 cells stably expressing human APJ receptor; inhibition of forskolin-mediated cAMP production; read-out: hAPJ cAMP EC50 Potency range
pEC50: −log10 of the molar value.
property_measured: pEC50

The examples below pair each entry with its known result.
compound=CCCCc1nc(O)c(-c2nnc(Cc3nc(Cc4ccccc4)no3)o2)c(O)c1-c1c(OC)cccc1OC property_measured=pEC50 result="8.00 to 11.00"
compound=CCOCc1nc(O)c(-c2nnc(Cc3noc4ccccc34)o2)c(O)c1-c1c(OC)cccc1OC property_measured=pEC50 result="8.00 to 11.00"
compound="CCCCc1nc(O)c(-c2nnc(C3NCCc4ccccc43)o2)c(O)c1-c1c(OC)cccc1OC (centres unmarked)" property_measured=pEC50 result="8.00 to 11.00"

Switching to the query record.
Find the measured pEC50 of CCCCc1nc(O)c(-c2nnc(CNC(=O)CC(C)C)o2)c(O)c1-c1c(OC)cccc1OC and report it.
8.00 to 11.00

// provenance: patent US10336739B2
